Tested on: Mycobacterium tuberculosis Erdman (autoluminescent)
protocol.description: total FIC90 (Loewe) at 90% inhibition, three-drug combination (log2); higher = more antagonistic
experimental.conditions: in vitro model: butyrate; time point: constant (~7 days, model-specific)
Label TRUE when total FIC90 >= 1; otherwise FALSE.

Decide: is the reported value of total FIC90 for COc1nc2ccc(Br)cc2cc1[C@@H](c1ccccc1)[C@@](O)(CCN(C)C)c1cccc2ccccc12 [bedaquiline] + O=[N+]([O-])c1cn2c(n1)OC[C@@H](OCc1ccc(OC(F)(F)F)cc1)C2 [pretomanid] + CO[C@H]1/C=C/O[C@@]2(C)Oc3c(C)c(O)c4c(O)c(c(/C=N/N5CCN(C)CC5)c(O)c4c3C2=O)NC(=O)/C(C)=C\C=C\[C@H](C)[C@H](O)[C@@H](C)[C@@H](O)[C@@H](C)[C@H](OC(C)=O)[C@@H]1C [rifampicin] equal to or greater than 1? FALSE

Decide: is the reported value of total FIC90 for CC(C)/N=c1\cc2n(-c3ccc(Cl)cc3)c3ccccc3nc-2cc1Nc1ccc(Cl)cc1 [clofazimine] + CC(=O)NC[C@H]1CN(c2ccc(N3CCOCC3)c(F)c2)C(=O)O1 [linezolid] + CO[C@H]1/C=C/O[C@@]2(C)Oc3c(C)c(O)c4c(O)c(c(/C=N/N5CCN(C6CCCC6)CC5)c(O)c4c3C2=O)NC(=O)/C(C)=C\C=C\[C@H](C)[C@H](O)[C@@H](C)[C@@H](O)[C@@H](C)[C@H](OC(C)=O)[C@@H]1C [rifapentine] equal to or greater than 1? TRUE

Decide: is the reported value of total FIC90 for CC(C)/N=c1\cc2n(-c3ccc(Cl)cc3)c3ccccc3nc-2cc1Nc1ccc(Cl)cc1 [clofazimine] + NC(=O)c1cnccn1 [pyrazinamide] + CO[C@H]1/C=C/O[C@@]2(C)Oc3c(C)c(O)c4c(O)c(c(/C=N/N5CCN(C)CC5)c(O)c4c3C2=O)NC(=O)/C(C)=C\C=C\[C@H](C)[C@H](O)[C@@H](C)[C@@H](O)[C@@H](C)[C@H](OC(C)=O)[C@@H]1C [rifampicin] equal to or greater than 1? FALSE

Decide: is the reported value of total FIC90 for CC(C)/N=c1\cc2n(-c3ccc(Cl)cc3)c3ccccc3nc-2cc1Nc1ccc(Cl)cc1 [clofazimine] + CC(=O)NC[C@H]1CN(c2ccc(N3CCOCC3)c(F)c2)C(=O)O1 [linezolid] + NC(=O)c1cnccn1 [pyrazinamide] equal to or greater than 1? TRUE

Decide: is the reported value of total FIC90 for CC(C)/N=c1\cc2n(-c3ccc(Cl)cc3)c3ccccc3nc-2cc1Nc1ccc(Cl)cc1 [clofazimine] + COc1c(N2C[C@@H]3CCCN[C@@H]3C2)c(F)cc2c(=O)c(C(=O)O)cn(C3CC3)c12 [moxifloxacin] + O=[N+]([O-])c1cn2c(n1)OC[C@@H](OCc1ccc(OC(F)(F)F)cc1)C2 [pretomanid] equal to or greater than 1? TRUE

Decide: is the reported value of total FIC90 for NNC(=O)c1ccncc1 [isoniazid] + NC(=O)c1cnccn1 [pyrazinamide] + CO[C@H]1/C=C/O[C@@]2(C)Oc3c(C)c(O)c4c(O)c(c(/C=N/N5CCN(C6CCCC6)CC5)c(O)c4c3C2=O)NC(=O)/C(C)=C\C=C\[C@H](C)[C@H](O)[C@@H](C)[C@@H](O)[C@@H](C)[C@H](OC(C)=O)[C@@H]1C [rifapentine] equal to or greater than 1? FALSE

* * *

Tested on: Mycobacterium tuberculosis Erdman (autoluminescent)
protocol.description: Einf, fitted maximum growth inhibition of three-drug combination (fraction); higher = stronger maximal inhibition
experimental.conditions: in vitro model: acidic pH 5.7; time point: constant (~7 days, model-specific)
measured.attribute: Einf

Check out these entries, answers already filled in.
Short answer for COc1nc2ccc(Br)cc2cc1[C@@H](c1ccccc1)[C@@](O)(CCN(C)C)c1cccc2ccccc12 [bedaquiline] + CC(=O)NC[C@H]1CN(c2ccc(N3CCOCC3)c(F)c2)C(=O)O1 [linezolid] + O=[N+]([O-])c1cn2c(n1)OC[C@@H](OCc1ccc(OC(F)(F)F)cc1)C2 [pretomanid] : Einf was 0.937

Short answer for COc1nc2ccc(Br)cc2cc1[C@@H](c1ccccc1)[C@@](O)(CCN(C)C)c1cccc2ccccc12 [bedaquiline] + COc1c(N2C[C@@H]3CCCN[C@@H]3C2)c(F)cc2c(=O)c(C(=O)O)cn(C3CC3)c12 [moxifloxacin] + CO[C@H]1/C=C/O[C@@]2(C)Oc3c(C)c(O)c4c(O)c(c(/C=N/N5CCN(C)CC5)c(O)c4c3C2=O)NC(=O)/C(C)=C\C=C\[C@H](C)[C@H](O)[C@@H](C)[C@@H](O)[C@@H](C)[C@H](OC(C)=O)[C@@H]1C [rifampicin] : Einf was 0.833

Shifting focus to the molecule that follows.
Short answer for NNC(=O)c1ccncc1 [isoniazid] + O=[N+]([O-])c1cn2c(n1)OC[C@@H](OCc1ccc(OC(F)(F)F)cc1)C2 [pretomanid] + CO[C@H]1/C=C/O[C@@]2(C)Oc3c(C)c(O)c4c(O)c(c(/C=N/N5CCN(C)CC5)c(O)c4c3C2=O)NC(=O)/C(C)=C\C=C\[C@H](C)[C@H](O)[C@@H](C)[C@@H](O)[C@@H](C)[C@H](OC(C)=O)[C@@H]1C [rifampicin] : Einf was 0.859

* * *

Tested on: Mycobacterium tuberculosis Erdman (autoluminescent)
protocol.description: GRinf, maximum normalised growth rate inhibition (unitless (-1 to 1)); higher = less effect (negative = killing)
experimental.conditions: in vitro model: valerate; time point: terminal (~4-5 doublings, model-specific)
Label t when GRinf >= 0.09; otherwise f.

Examples with answers:
Decide: is the reported value of GRinf for O=[N+]([O-])c1cn2c(n1)OC[C@@H](OCc1ccc(OC(F)(F)F)cc1)C2 [pretomanid] + CO[C@H]1/C=C/O[C@@]2(C)Oc3c(C)c(O)c4c(O)c(c(/C=N/N5CCN(C6CCCC6)CC5)c(O)c4c3C2=O)NC(=O)/C(C)=C\C=C\[C@H](C)[C@H](O)[C@@H](C)[C@@H](O)[C@@H](C)[C@H](OC(C)=O)[C@@H]1C [rifapentine] equal to or greater than 0.09? f

Decide: is the reported value of GRinf for NNC(=O)c1ccncc1 [isoniazid] + NC(=O)c1cnccn1 [pyrazinamide] equal to or greater than 0.09? t

Decide: is the reported value of GRinf for NNC(=O)c1ccncc1 [isoniazid] + COc1c(N2C[C@@H]3CCCN[C@@H]3C2)c(F)cc2c(=O)c(C(=O)O)cn(C3CC3)c12 [moxifloxacin] equal to or greater than 0.09? f

Decide: is the reported value of GRinf for CC(C)/N=c1\cc2n(-c3ccc(Cl)cc3)c3ccccc3nc-2cc1Nc1ccc(Cl)cc1 [clofazimine] + COc1c(N2C[C@@H]3CCCN[C@@H]3C2)c(F)cc2c(=O)c(C(=O)O)cn(C3CC3)c12 [moxifloxacin] equal to or greater than 0.09? f

Decide: is the reported value of GRinf for COc1c(N2C[C@@H]3CCCN[C@@H]3C2)c(F)cc2c(=O)c(C(=O)O)cn(C3CC3)c12 [moxifloxacin] + NC(=O)c1cnccn1 [pyrazinamide] equal to or greater than 0.09? f

Decide: is the reported value of GRinf for CC(C)/N=c1\cc2n(-c3ccc(Cl)cc3)c3ccccc3nc-2cc1Nc1ccc(Cl)cc1 [clofazimine] + CO[C@H]1/C=C/O[C@@]2(C)Oc3c(C)c(O)c4c(O)c(c(/C=N/N5CCN(C6CCCC6)CC5)c(O)c4c3C2=O)NC(=O)/C(C)=C\C=C\[C@H](C)[C@H](O)[C@@H](C)[C@@H](O)[C@@H](C)[C@H](OC(C)=O)[C@@H]1C [rifapentine] equal to or greater than 0.09? t

***
Decide: is the reported value of GRinf for NC(=O)c1cnccn1 [pyrazinamide] + CO[C@H]1/C=C/O[C@@]2(C)Oc3c(C)c(O)c4c(O)c(c(/C=N/N5CCN(C6CCCC6)CC5)c(O)c4c3C2=O)NC(=O)/C(C)=C\C=C\[C@H](C)[C@H](O)[C@@H](C)[C@@H](O)[C@@H](C)[C@H](OC(C)=O)[C@@H]1C [rifapentine] equal to or greater than 0.09? t

Decide: is the reported value of GRinf for CC[C@@H](CO)NCCN[C@@H](CC)CO [ethambutol] + NC(=O)c1cnccn1 [pyrazinamide] equal to or greater than 0.09? t

Decide: is the reported value of GRinf for NNC(=O)c1ccncc1 [isoniazid] + CO[C@H]1/C=C/O[C@@]2(C)Oc3c(C)c(O)c4c(O)c(c(/C=N/N5CCN(C)CC5)c(O)c4c3C2=O)NC(=O)/C(C)=C\C=C\[C@H](C)[C@H](O)[C@@H](C)[C@@H](O)[C@@H](C)[C@H](OC(C)=O)[C@@H]1C [rifampicin] equal to or greater than 0.09? f
